molecular target: T1, recombinant YFV E protein (soluble E, sE; YFV Asibi strain) (Yellow fever virus, Asibi strain, UniProt Q6DV88 286-678); assay: BLI monovalent (IgG on tip)
T1 construct: also called YFV E antigen; YFV E monomer
T1 sequence (Q6DV88 286-678): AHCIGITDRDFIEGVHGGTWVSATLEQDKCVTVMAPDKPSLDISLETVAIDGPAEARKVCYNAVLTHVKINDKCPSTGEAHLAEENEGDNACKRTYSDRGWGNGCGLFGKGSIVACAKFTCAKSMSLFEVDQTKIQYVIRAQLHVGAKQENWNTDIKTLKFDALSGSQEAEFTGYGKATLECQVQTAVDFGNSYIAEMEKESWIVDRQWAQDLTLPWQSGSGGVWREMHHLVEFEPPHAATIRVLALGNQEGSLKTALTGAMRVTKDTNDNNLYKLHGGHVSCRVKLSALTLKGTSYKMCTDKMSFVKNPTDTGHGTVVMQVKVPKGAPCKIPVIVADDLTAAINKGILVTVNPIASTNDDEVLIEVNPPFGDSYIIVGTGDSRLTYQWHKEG
Entries and their Kd values follow.
Mention the unit after the number when you answer.

Answered examples (2):
- ADI-42818 (antibody, V domains shown, full-length IgG; also called Antibody Number 41) VH: EVQLVESGPGLVKPSGTLSLTCAVSGGSITGSNWWSWVRQPPGKGLEWIGEIYHTGSTSYNPSLKSRVTISVDNSKNHFSLRLTSVTAADTAVYYCARVRWSGSTSWDLDYWGQGTLVTVSS VL: QSVVTQPPSVSAAPGQKVTISCSGSSSNIGNNYVSWYQQLPGTAPKLLIYDNNKRPSGIPDRFSGSTSGTSATLGITGLQTGDEAVYYCGTWDTSPSAGGVFGGGTKVTVL: 2.41 nM
- ADI-42178 (antibody, V domains shown, full-length IgG) VH: EVQLVESGGGVIQPGRSLRLSCAASGFNFSSYGMHWVRQAPGKGLEWVAVISYDGSNKYYADSVKGRFTISRDNSKNTLYLQMNSLRAEDTAVHYCAKAYDSRGYYYLDYWGQGTLVTVSS VL: DIQLTQSPSTLSASVGDRVTITCRASQSISDWLAWFQQKPGKAPKLLIYRASGLETGVPSRFSGSGSGTEFTLTISSLQPDDFATYYCQQYNRYSYTFGQGTKVEIK: 34.4 nM

Here is the next item to consider.
Ask | Param item = ADI-50220 (antibody, V domains shown, full-length IgG; also called Antibody Number 110) VH: EVQLVESGGGVVQPGRSLRLSCAASGFIFSSNSMHWVRQAPGKGLKWVAIISNDGRNKFYADAVKGRFTVSRDNSKNTLYLQMNSLRPEDTAVYYCARGYDSSGYWGFGDNWGQGTLVTVSS VL: DIQVTQSPSTLSASVGDRVSITCRASQTISSWLAWYQQKPGKAPKLLMYKASNLQSGVPSRFTGSGSGTEFTLTISSLQPDDFATYYCQQYYSYPYTFGPGTKVDIK ; retrieve measured Kd.
Reply | 3.64 nM
